- Tested on: SW13 (Other Solid Carcinomas);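 note: after 72 h of two-drug dosing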
- Test name: Bliss excess, mean over the matrix (fraction); higher = more synergy
Readout type: Bliss excess
API doc: respond with a numeric literal and nothing else, no unit.

{"columns": ["Compound", "Bliss excess"],
 "data": [
  ["Cn1cnc2c(F)c(Nc3ccc(Br)cc3Cl)c(C(=O)NOCCO)cc21 [Selumetinib] + C=CCn1c(=O)c2cnc(Nc3ccc(N4CCN(C)CC4)cc3)nc2n1-c1cccc(C(C)(C)O)n1 [AZD1775] (first compound max 10 µM, partner max 1 µM)", -0.0576]
]}

So the reported Bliss excess for Cc1c2c(nn1C)CSCc1cc(n(C)n1)CSc1cc(c3ccccc3c1)OCCCc1c(C(=O)O)n(C)c3c-2c(Cl)ccc13 [AZD5991] + C1CN(CCC1(C(=O)N[C@@H](CCO)C2=CC=C(C=C2)Cl)N)C3=NC=NC4=C3C=CN4 [Capivasertib] (first compound max 1 µM, 7x7, partner max 3 µM) , on SW13 (Other Solid Carcinomas), turned out to be 0.0419
